# tested.target: Recombinant human soluble guanylate cyclase (sGC) (Homo sapiens)
# Construct: histidine tag (C); made in house; host or cells: Sf9 insect cells (baculovirus coinfection)
# Sequence (Q02108 whole entry partner): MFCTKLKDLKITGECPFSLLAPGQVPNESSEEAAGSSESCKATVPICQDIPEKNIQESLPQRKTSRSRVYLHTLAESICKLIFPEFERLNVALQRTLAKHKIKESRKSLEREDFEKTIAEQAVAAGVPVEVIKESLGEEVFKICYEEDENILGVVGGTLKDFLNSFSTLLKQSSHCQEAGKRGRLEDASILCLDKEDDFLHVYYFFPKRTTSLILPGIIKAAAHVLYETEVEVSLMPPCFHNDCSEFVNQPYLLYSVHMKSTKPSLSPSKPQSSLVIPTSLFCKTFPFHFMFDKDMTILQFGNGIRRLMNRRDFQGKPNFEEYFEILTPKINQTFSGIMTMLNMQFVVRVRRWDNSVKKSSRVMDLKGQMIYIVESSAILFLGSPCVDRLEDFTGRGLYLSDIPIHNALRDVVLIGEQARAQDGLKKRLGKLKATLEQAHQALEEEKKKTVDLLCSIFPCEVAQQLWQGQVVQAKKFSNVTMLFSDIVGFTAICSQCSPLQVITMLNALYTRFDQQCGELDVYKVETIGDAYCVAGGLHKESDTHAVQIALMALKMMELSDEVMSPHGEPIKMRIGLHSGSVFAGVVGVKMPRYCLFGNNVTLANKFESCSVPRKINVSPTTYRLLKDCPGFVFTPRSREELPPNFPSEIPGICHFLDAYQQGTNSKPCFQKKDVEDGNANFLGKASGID
# Sequence (Q02153 whole entry): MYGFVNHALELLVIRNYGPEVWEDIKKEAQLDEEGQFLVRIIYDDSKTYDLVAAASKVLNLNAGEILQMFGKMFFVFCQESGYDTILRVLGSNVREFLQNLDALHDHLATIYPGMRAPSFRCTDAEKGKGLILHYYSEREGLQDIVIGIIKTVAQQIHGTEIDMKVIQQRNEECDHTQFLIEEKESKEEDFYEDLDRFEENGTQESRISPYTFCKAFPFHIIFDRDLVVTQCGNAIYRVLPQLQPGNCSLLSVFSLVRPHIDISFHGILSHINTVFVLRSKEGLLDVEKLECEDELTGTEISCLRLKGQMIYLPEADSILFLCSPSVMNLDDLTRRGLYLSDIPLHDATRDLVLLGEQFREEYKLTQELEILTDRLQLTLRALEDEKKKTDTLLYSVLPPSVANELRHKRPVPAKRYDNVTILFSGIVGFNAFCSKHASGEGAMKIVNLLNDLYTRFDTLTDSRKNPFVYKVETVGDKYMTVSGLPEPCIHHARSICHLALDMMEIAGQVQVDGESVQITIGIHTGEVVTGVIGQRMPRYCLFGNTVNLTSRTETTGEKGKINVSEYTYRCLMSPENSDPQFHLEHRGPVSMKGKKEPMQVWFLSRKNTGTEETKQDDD
# assay.info: Molecular assay: activation of heme-free sGC, cGMP detection (CisBio kit)
# Type: biochemical
# assay.conditions: 300 pM heme-free sGC, 37° C., 60 minutes, cGMP formation
endpoint.label: EC50 (nM)

For orientation, consider the following solved cases.
molecule	EC50, nM
Cc1ccc(OCc2ccc3c(c2)CCN(Cc2cncn2C)C3)c(-c2cccc(-n3ncc(C(=O)O)c3C(F)(F)F)n2)c1 [Compound 30]	71
Cc1ccc(OCc2ccc3c(c2C)CCN(C)C3)c(-c2cccc(-c3c(C)c(C(=O)O)nn3C)n2)c1 [Compound 78]	970

[1] Cc1cccc(-c2cccc(-c3onc(C(=O)O)c3C)n2)c1OCc1ccc2c(c1)CCN(C1CCOCC1)C2 [Compound 86]
[2] Cc1ccc(OCc2ccc3c(c2)CCN(Cc2ccccc2)C3)c(-c2cccc(-n3ncc(C(=O)O)c3C(F)(F)F)n2)c1 [Compound 27]
[3] CCn1nc(C(=O)O)c(C)c1-c1cccc(-c2cccc(C)c2OCc2ccc3c(c2)CCN(C2CCOCC2)C3)n1 [Compound 82]
[4] Cn1c(C(=O)O)cnc1-c1cccc(-c2cccc(C(F)(F)F)c2OCc2ccc3c(c2)CCN(C2CCOCC2)C3)n1 [Compound 61]
[5] Cc1ccc(OCc2ccc3c(c2)CCN(Cc2cnccn2)C3)c(-c2cccc(-n3ncc(C(=O)O)c3C(F)(F)F)n2)c1 [Compound 24]
Sort the molecules on EC50; start with the lowest figure. Give the labels in the order specified.
2, 5, 4, 3, 1
